study-conditions: in n-propanol, 283.15 K
readout-kind: solubility (mole fraction)
Respond with the number and no other words.

## Task // solubility (mole fraction) lookup, key: `CC(=O)Oc1ccccc1C(=O)O`
## Result 0.0254

----------
study-conditions: in acetone, 283.15 K
readout-kind: solubility (mole fraction)
Respond with the number and no other words.

## Task // solubility (mole fraction) lookup, key: `CC(=O)Oc1ccccc1C(=O)O`
## Result 0.0629

----------
study-conditions: in acetone, 303.15 K
readout-kind: solubility (mole fraction)
Respond with the number and no other words.

## Task // solubility (mole fraction) lookup, key: `CC(=O)Oc1ccccc1C(=O)O`
## Result 0.105

Source listed as BigSolDB 2.1.
